melting point by entry:

>  <structure-string>
COc1ccnc(C(=S)N[C@H](C)C(=O)O[C@H](C)C(c2ccc(F)cc2)c2ccc(F)cc2)c1O

>  <melting point>
53 to 64 °C

$$$$
>  <structure-string>
COc1cc(F)ccc1[C@@H](c1ccc(F)cc1)[C@H](C)OC(=O)[C@H](C)NC(=S)c1nccc(OC)c1O

>  <melting point>
54 to 70 °C

$$$$
>  <structure-string>
COc1ccnc(C(=S)N[C@@H](C)C(=O)O[C@@H](C)[C@H](Oc2cccc(F)c2)C(C)C)c1O

>  <melting point>
132 to 141 °C

$$$$

// moving on: another record for melting point
Return reported melting point; argument: COc1ccnc(C(=S)N[C@@H](C)C(=O)O[C@@H](C)[C@@H](c2ccccc2)c2ccc(F)cc2C)c1O 152 to 159 °C
